- measurement-notes: yeast display, Sf9 membrane polyspecificity reagent, FACS + sequencing; frameworks hold sequencing errors
property-name: polyreactivity (PSR sort gate)

Worked examples, 4 sequences total:
[
  {
    "residue-codes": "QVQLVESGGGLVQAGGSLRLSCAASGGTFITNAMGWYRKAPGKERELVAAITSGGRTTYADSVKGRFTISRDNAKNTVDLQMNSLKPVDTAVYYCAADHVYSSTYFLDDYWGQGTQVTVSS",
    "polyreactivity (PSR sort gate)": "low polyreactivity"
  },
  {
    "residue-codes": "QVQLVESVGGLVQAGGSLRLSCAASGRIYAMGLYRPAPGKERELVAAISRGGSTYYADSVKGRFTISRDNAKNTVYLQMNSLKPEDSAVYYCARRYASTGYDYWGQGTQVTESS",
    "polyreactivity (PSR sort gate)": "high polyreactivity"
  },
  {
    "residue-codes": "QVQLVESGGGLVQAGGSLRISSAASGNIFLYYAMGWYRQAPGKERELVAYIDSSGASTYYADSVKGRFTISRDNAKNTVYLQMNSLKPEDTAVYFCASDEGTVGGQQLRPLMDYWGQGTQVTVSS",
    "polyreactivity (PSR sort gate)": "low polyreactivity"
  },
  {
    "residue-codes": "QVQLVESGGGLVQAGGSLRLSCAASGRILSANAMGWYRQAPGTERELVAAITYSGDNTYYADSVKGRFTISRDNAKNTVYLQMNSLKPEDTAVYYCAREFQVDGGEEDYWGQGSQVTVSS",
    "polyreactivity (PSR sort gate)": "low polyreactivity"
  }
]

Please examine the following record next.
Input line: Suppose we examine the sequence QVQLVESGGGLVQAGGSLRLSCADSGGIFNTYAMGWYRQAPGKEREFVAAISRRGGGTYYADSVKGRFTISRDNAKNTVYLQMNSLKPEDTAVYYCAAKRFHEHGYWGQGTQVTVSS ; what polyreactivity (PSR sort gate) value has been reported?
Output line: high polyreactivity

---

- measurement-notes: yeast display, Sf9 membrane polyspecificity reagent, FACS + sequencing; frameworks hold sequencing errors
property-name: polyreactivity (PSR sort gate)

Worked examples, 6 sequences total:
[
  {
    "residue-codes": "QVQLVESGGGLVQAGGSLRLSCAASGFTIDLYAMGWYRQAPGKERELVAAISIRGGSTYYADSVKGRFTISRDNAKNTVYLQMNSLKPEDTAVYYCATVTSRRSYIAYRGTGDYDYWGQGTQVTVSS",
    "polyreactivity (PSR sort gate)": "low polyreactivity"
  },
  {
    "residue-codes": "QVQLVESGGGLVQAGGSLRLSCAASGSTINYYAMGWYIQAPGKERELVARITWSGARTYYADSVKGRFTISRDNAKNTVYLQMNSLKPEDTAVYYCAAGYLALESPWYYRWYDYWGQGTQVTVSS",
    "polyreactivity (PSR sort gate)": "low polyreactivity"
  },
  {
    "residue-codes": "QVQLVESGGGLVQAGGSLRLSCAASGFTFRAYAMGWYRQAPGKEREFVAAISYSGGSTYYADSVKGRFTISRDNAKNTVDLQMNSLKPEDTAVYYCATVLYSVPRYNYWGQGTQVTVSS",
    "polyreactivity (PSR sort gate)": "high polyreactivity"
  },
  {
    "residue-codes": "QVHLVESGGCLVQAGGSLRLSCAASGFTITYNAMGWYRQAPGKEREFVAAITNNGSTYYADSVKGRFTISRDNAMNTVYFQMNSLKPEDTAVYYCAVDPGYYDEYNYWGQGTHVTVSS",
    "polyreactivity (PSR sort gate)": "low polyreactivity"
  },
  {
    "residue-codes": "QVQLVESGGGLVQAGGSLRLSCAASGLIFENNAMGWYRQAPGKERELVAAITKGGGSTYYADSVKGRFTISRDNAMNTVYLQMNSLKPEDTAVYYCAKVHPWHRYWQYWYDYWGQGTQVTVSS",
    "polyreactivity (PSR sort gate)": "low polyreactivity"
  },
  {
    "residue-codes": "QVQLVESGGGLVQAGGSLRLSCAASGRIFGRYVMGWYRQAPGKERELVAAITSGGSTYYADSVKGRFTISRDNAKNTVYLQMNSLKPEDTAVYYCATRLFYPRFYYWGQGTQVTVSS",
    "polyreactivity (PSR sort gate)": "high polyreactivity"
  }
]

Input line: Suppose we examine the sequence QVQLVESGGGLVQAGGSLRLSCAASGFTFYRYAMGWYRQAPGKERELVAAISTSGGSTYYADSVKGRFTISRDNAKNTVYLQMNSLKPEDTAVYYCAASYYGKRDRAGPYYSFDYWGQGTQVTVSS ; what polyreactivity (PSR sort gate) value has been reported?
Output line: high polyreactivity

Input line: What do you have for QVQLVESGGGLVQAGGSLRLSCAASGSIFSTYAMGWYRQAPGKERELVATIRRGGSTYYADSVKGRFTISRDNAKNTVYLQMNSLKPEDTAVYYCAATVSSYPYYRYYSWGQGTQVTVSS ?
Output line: high polyreactivity

Input line: What do you have for QVQLVESGGGLVQAGGRLRLSCAASGSTLSGNAMGGYRQAPGKERELVAAITSSGGRTYYADSVKGRFTISRDNAKNTVYLQMNSLKPEDTAVYYCAKDRYGWGQGTQVTVSS ?
Output line: high polyreactivity

Input line: What do you have for QVQLVESGGGLVQAGGSLRLSCAASGRTFFSYTMGWYRPAPGKERELFAAIYDSDGRTYYADSVKVRFTISRDNAKNTVYLQMYSLKPEDTAVYYCAAVPDKYWSRVRRYLFEHNYWGQGTKVTVSS ?
Output line: low polyreactivity

Input line: What do you have for QVQLVESGGGLVQAGGSLRLSCAASGRIFTYNAMGWYRQAPGKERELVAAISTRGGTTRYADSVKGRFTISRDNAKNTVYLQMNSLKPEDTAVYYCNAVSRGSRWDGLVRLDYWGQGTQVTVSS ?
Output line: high polyreactivity

---

- measurement-notes: yeast display, Sf9 membrane polyspecificity reagent, FACS + sequencing; frameworks hold sequencing errors
property-name: polyreactivity (PSR sort gate)

[
  {
    "residue-codes": "QVQLVDSGGGLVQAGGSLRLSCAASGLTIPVYTMVWYRHAPGTEREFVAAITYNGGRTYYADCVKGRFTISRDNAKNTVYLQMNSLKPEDTAVYYCAAEYGTYFVRYYAGASYRYGYWGQGTQVTVSS",
    "property-name": "polyreactivity (PSR sort gate)",
    "assay-result": "low polyreactivity"
  },
  {
    "residue-codes": "QVQLVESGGGLVQAGGTLRLSCAASGYIFDRNAMGWYRPAPGKERELVAAITKRGGSTYYADSVKGRFTISRDNAKNTVYLQMNSLKPEETAVYYCNALARSSRYDYWGQGTQVTVSS",
    "property-name": "polyreactivity (PSR sort gate)",
    "assay-result": "low polyreactivity"
  }
]

---

- measurement-notes: yeast display, Sf9 membrane polyspecificity reagent, FACS + sequencing; frameworks hold sequencing errors
property-name: polyreactivity (PSR sort gate)

[
  {
    "residue-codes": "QVQLVESGGGLVQAGGRLRLSCAASGSIFITYAMGWYRQAPGKEMELVAAIRDSGDRTYYADSVKGRFTISRDNAKNTVYLQMNSLKPEDTAVYYCNARWQEPLKYDYWGQGTQVTVSS",
    "property-name": "polyreactivity (PSR sort gate)",
    "assay-result": "low polyreactivity"
  },
  {
    "residue-codes": "QVQLVESGGGLVQAGGSLRLSCAASGSIFLKYTMGRYRQAPGKERELVAAITSGGTTNYADSVKGRFTISRDNAKNTVYLQMNSLKPEDTAVYYCARDSYQLGLIRDPLEYDYWGQGTQETVSS",
    "property-name": "polyreactivity (PSR sort gate)",
    "assay-result": "low polyreactivity"
  },
  {
    "residue-codes": "QVQLVETGACLVQAGGSLRLSCAASGLTFFGYTMGRYRQAHGKEREFVADITWSGGSTYYADSVKGRFTISRDNAKNTVYLQMNSLKPEDTAVYYCAVAPPNWDPFVDDTYLMDYWGQGTQVTVSS",
    "property-name": "polyreactivity (PSR sort gate)",
    "assay-result": "low polyreactivity"
  },
  {
    "residue-codes": "QVQLVESGGGLVQAGGSLRLSCAASGSTFNSNVMGWYRQAPGKERELVAAISRSGGNTYYADSVKGRFTISRDNAKNTVYLQMNSLKPEDTAVYYCNKAGRYPYDYWGQGTQVTVSS",
    "property-name": "polyreactivity (PSR sort gate)",
    "assay-result": "high polyreactivity"
  },
  {
    "residue-codes": "QVQLVESGGGLVQAGGSLRLICAASGIIFVGYAMGWYRQAPGKERELVAAIDGTGDSTYYADSVKGRFTISRDNAKNTVYLQMNSLKPEDTAVYYCDAEYDYRWWYGYDYWGQATQVTVSS",
    "property-name": "polyreactivity (PSR sort gate)",
    "assay-result": "high polyreactivity"
  }
]

Input line: Suppose we examine the sequence QVQLVESGGGLVQAGGSLRLSCAASGRTFKYYTMGWYRQAPGKEREFVAAITSSGGRTYYADSVKGRFTISRDNAKNTVDLQMNSLKPEDTAVYYCAASTYRVWLAPATLSRYDYWGQGTQVTVSS ; what polyreactivity (PSR sort gate) value has been reported?
Output line: high polyreactivity

Input line: What do you have for QVQLVESGGGLVQAGGSLRLTCAASGFTFNRYTMGWYRQAPGKERELVAAITRSGGSTYYADSVKGRFTISRDNAKNTVDLQMNSLKPEDTAVYYCAAPSYLVAGYGYWGQGTQVTLSS ?
Output line: high polyreactivity

Input line: What do you have for QVQLVESGGGLVQTGGSLRLSCASSGRIFFDNAMGWYSQAPGKERELVAGIDSGGSTYYADSVKGRFSISRDNAKNTVYLQMNRLKPEDTAVYYCNADYPPSTQSPLLQSYDYWGHGTQVTVSS ?
Output line: low polyreactivity
